molecular target: UniProtKB O42275
Sequence (O42275 whole entry): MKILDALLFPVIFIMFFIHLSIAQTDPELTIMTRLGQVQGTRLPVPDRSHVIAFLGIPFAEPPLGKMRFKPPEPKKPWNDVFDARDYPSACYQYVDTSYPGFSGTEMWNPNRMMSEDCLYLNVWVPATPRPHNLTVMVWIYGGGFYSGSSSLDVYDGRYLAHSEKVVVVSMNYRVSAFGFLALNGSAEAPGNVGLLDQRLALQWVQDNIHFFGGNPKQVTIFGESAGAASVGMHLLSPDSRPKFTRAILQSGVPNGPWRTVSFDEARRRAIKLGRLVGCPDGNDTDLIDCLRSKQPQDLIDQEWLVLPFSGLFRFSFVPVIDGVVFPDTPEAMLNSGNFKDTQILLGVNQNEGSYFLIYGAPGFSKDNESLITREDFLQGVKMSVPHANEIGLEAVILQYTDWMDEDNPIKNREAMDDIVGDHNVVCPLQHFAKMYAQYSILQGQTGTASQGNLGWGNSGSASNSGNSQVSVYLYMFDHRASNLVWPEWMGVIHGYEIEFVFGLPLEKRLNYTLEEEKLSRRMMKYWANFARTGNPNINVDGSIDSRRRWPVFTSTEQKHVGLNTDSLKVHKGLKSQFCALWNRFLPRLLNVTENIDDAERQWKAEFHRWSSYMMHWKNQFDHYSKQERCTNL
# IC50 per record follows
Could you give the number and then its unit, please?

compound_structure=O=c1cc(Cl)c2cc(CN3CCN(c4ccccc4)CC3)ccc2o1 measured="19 µM"
compound_structure=O=C(c1cc2ccccc2oc1=O)N1CCN(c2ccc(Cl)cc2)CC1 measured="98 µM"
compound_structure=O=C(c1ccc([N+](=O)[O-])cc1)N1CCN(C(=O)c2cc3ccccc3oc2=O)CC1 measured="34 µM"

Bench note: what IC50 did `O=C(c1ccccc1Cl)N1CCN(C(=O)c2cc3ccccc3oc2=O)CC1` show?
26 µM

Now this one: `Cc1ccc2oc(=O)cc(N3CCN(c4ccccc4)CC3)c2c1`
4.5 µM

Also `O=C(c1cc2ccccc2oc1=O)N1CCN(c2cc(Cl)ccc2Cl)CC1` , if possible.
14 µM

What about `Cc1ccc2oc(=O)cc(N3CCN(c4cc(Cl)ccc4Cl)CC3)c2c1` ?
827 µM

Follow-up entry: `Cc1ccc2oc(=O)cc(N3CCN(C(=O)c4ccccc4)CC3)c2c1`
7.4 µM

Subsequent entry: `Cc1ccc2oc(=O)cc(N3CCOCC3)c2c1`
875 µM

// query: `Cc1ccc2oc(=O)cc(N3CCN(C)CC3)c2c1`
901 µM

Okay, and `COc1ccc(N2CCN(C(=O)c3cc4ccccc4oc3=O)CC2)cc1` ?
7.5 µM
